# TARGET_ENTITY: UniProt:Q01727
# Sequence (Q01727 whole entry, looked up): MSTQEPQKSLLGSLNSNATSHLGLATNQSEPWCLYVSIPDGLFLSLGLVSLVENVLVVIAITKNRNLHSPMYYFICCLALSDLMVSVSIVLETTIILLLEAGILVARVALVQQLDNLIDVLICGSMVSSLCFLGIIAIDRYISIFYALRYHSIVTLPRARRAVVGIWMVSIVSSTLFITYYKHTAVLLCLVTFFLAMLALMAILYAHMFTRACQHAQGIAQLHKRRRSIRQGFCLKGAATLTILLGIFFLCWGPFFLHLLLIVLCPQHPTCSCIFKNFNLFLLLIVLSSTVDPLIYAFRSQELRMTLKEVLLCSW
# TEST_NAME: Agonist activity at mouse MC1R expressed in HEK293 cells assessed as cAMP accumulation incubated for 2 hrs by alphascreen assay relative to Ac-His-DPhe-Arg-Trp-NH2
# Format: functional, cell-based
Square brackets hold non-standard residues; d marks the D form. Peptide text beside a SMILES is read from it.
Property: Ratio EC50; scope: individual compounds
Reply with the value as a number alone.

Measured Ratio EC50 of CC(=O)N[C@H](Cc1cnc[nH]1)C(=O)N[C@H](Cc1ccccc1)C(=O)N[C@@H](CCCNC(=N)N)C(=O)N[C@H](Cc1c[nH]c2ccccc12)C(=O)N1CCC[C@@H]1C(=O)NCC(=O)N1CCC[C@@H]1C(=O)NCC(=O)N1CCC[C@@H]1C(=O)NCC(=O)N1CCC[C@@H]1C(=O)NCC(=O)N1CCC[C@@H]1C(=O)NCC(=O)N1CCC[C@H]1C(=O)NCC(N)=O : 2

// Ratio EC50 value for N=C(N)NCCC[C@H](NC(=O)[C@@H](Cc1ccccc1)NC(=O)[C@H](Cc1cnc[nH]1)NC(=O)CNC(=O)[C@@H]1CCCN1C(=O)CNC(=O)[C@@H]1CCCN1C(=O)CNC(=O)[C@@H]1CCCN1C(=O)CNC(=O)[C@@H]1CCCN1C(=O)CNC(=O)[C@@H]1CCCN1C(=O)CNC(=O)[C@@H]1CCCN1)C(=O)N[C@@H](Cc1c[nH]c2ccccc12)C(N)=O (H-PGPGPGPGPGPGH[dF]RW-NH2) : 0.9

Ratio EC50 for CC(=O)N[C@H](Cc1cnc[nH]1)C(=O)N[C@H](Cc1ccccc1)C(=O)N[C@@H](CCCNC(=N)N)C(=O)N[C@H](Cc1c[nH]c2ccccc12)C(=O)N1CCC[C@@H]1C(=O)NCC(=O)N1CCC[C@@H]1C(=O)NCC(=O)N1CCC[C@@H]1C(=O)NCC(=O)N1CCC[C@@H]1C(=O)NCC(=O)N1CCC[C@@H]1C(=O)NCC(=O)N1CCC[C@H]1C(=O)NCC(=O)N[C@@H](Cc1cnc[nH]1)C(=O)N[C@H](Cc1ccccc1)C(=O)N[C@@H](CCCNC(=N)N)C(=O)N[C@@H](Cc1c[nH]c2ccccc12)C(N)=O is 3

The measured Ratio EC50 associated with N=C(N)NCCC[C@H](NC(=O)[C@@H](Cc1ccccc1)NC(=O)[C@H](Cc1cnc[nH]1)NC(=O)COCC(=O)NCCCOCCOCCOCCCN)C(=O)N[C@@H](Cc1c[nH]c2ccccc12)C(N)=O reads 0.6
